B1: Syntaxin-binding protein 4, residues 493 to 538; numbered along this chain, Q6ZWJ1 (parent)
chain: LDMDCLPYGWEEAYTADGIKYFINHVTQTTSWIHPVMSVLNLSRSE

variants of: B1; test: abundance fitness (aPCA) (normalised: wild type 0, dead -1); higher = more abundant; growth selection in yeast, the domain comes from the species named; conditions: Homo sapiens
Here the recorded abundance fitness is given for each entry.
Lab note: jot down the number only; don't add units.

mutation: Y8F
abundance fitness: -0.258
--
mutation: F22L
abundance fitness: -0.854
--
mutation: N41E
abundance fitness: -0.227
--
mutation: L1N
abundance fitness: -0.101
--
mutation: A13H
abundance fitness: -1.01

Consider the additional variant presented here.
Consider I23E . Its measured abundance fitness is -1.08
